# TARGET OF ASSAY: T1, human VPAC1 receptor (human, UniProt P32241 31-457)
# T1 sequence (looked up): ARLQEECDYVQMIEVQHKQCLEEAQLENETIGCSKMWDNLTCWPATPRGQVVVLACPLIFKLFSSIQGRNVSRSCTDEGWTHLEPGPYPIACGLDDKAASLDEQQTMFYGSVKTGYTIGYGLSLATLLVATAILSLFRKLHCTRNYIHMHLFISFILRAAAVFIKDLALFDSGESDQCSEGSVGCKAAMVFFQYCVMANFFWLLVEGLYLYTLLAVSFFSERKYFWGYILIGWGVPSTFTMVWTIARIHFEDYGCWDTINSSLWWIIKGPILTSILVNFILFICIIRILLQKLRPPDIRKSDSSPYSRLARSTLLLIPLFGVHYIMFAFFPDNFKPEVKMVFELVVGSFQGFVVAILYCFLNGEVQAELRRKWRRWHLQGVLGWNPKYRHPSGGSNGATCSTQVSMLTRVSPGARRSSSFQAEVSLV
# PROTOCOL NOTES: cell-based or functional assay
Where no end group is shown, it is not given here. [ ]: non-standard residue; d: D form. The star is where a group is joined. hArg = N=C(N)NCCCC[C@H](N)C(=O)O; Hexanoyl = CCCCCC(=O)*
EC50 cAMP, DiscoveRx strictly under 5 nM means 1; at 5 nM or over means 0.

binder="HSDAVFTDNYTRLRKQVAAKKYLQSIKNKRF [P34]" category_label=1
binder="HSDVVFTDNYTRLRKQVAAKKYLQSIKNKRYGGPSSGAPPPS [P53]" category_label=0
binder="HSDAVFTDNYTRFRKQVAAKKYLQSIKNKRYGGPSSGAPPPS [P26]" category_label=1
binder="HVDAVFTDNYTRLRKQVAAKKYLQSIKNKRYGGPSSGAPPPS (not fully specified) [P44]" category_label=0

Strictly below 5 nM in EC50 cAMP, DiscoveRx? HSDAVFTDNYTRLRKQVAAKKYLQSIKNRRYGGPSSGAPPPS [P25]
1

Strictly below 5 nM in EC50 cAMP, DiscoveRx? HSDAVFTDNYTRLRKQVAA[hArg]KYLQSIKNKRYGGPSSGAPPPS (ends and bridges not checked) [P18]
1

Strictly below 5 nM in EC50 cAMP, DiscoveRx? Hexanoyl-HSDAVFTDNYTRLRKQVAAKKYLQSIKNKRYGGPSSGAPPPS (also called VPAC2-P31) [P31]
0

Strictly below 5 nM in EC50 cAMP, DiscoveRx? HSDAVFTDNYTRLRKQVAAKKYLQSIKNKRHGGPSSGAPPPS [P28]
1
